Target: Therminator DNA polymerase (Thermococcus sp., UniProt Q56366, A485L/D141A/E143A)
Sequence (Q56366 1-775 D141A/E143A/A485L): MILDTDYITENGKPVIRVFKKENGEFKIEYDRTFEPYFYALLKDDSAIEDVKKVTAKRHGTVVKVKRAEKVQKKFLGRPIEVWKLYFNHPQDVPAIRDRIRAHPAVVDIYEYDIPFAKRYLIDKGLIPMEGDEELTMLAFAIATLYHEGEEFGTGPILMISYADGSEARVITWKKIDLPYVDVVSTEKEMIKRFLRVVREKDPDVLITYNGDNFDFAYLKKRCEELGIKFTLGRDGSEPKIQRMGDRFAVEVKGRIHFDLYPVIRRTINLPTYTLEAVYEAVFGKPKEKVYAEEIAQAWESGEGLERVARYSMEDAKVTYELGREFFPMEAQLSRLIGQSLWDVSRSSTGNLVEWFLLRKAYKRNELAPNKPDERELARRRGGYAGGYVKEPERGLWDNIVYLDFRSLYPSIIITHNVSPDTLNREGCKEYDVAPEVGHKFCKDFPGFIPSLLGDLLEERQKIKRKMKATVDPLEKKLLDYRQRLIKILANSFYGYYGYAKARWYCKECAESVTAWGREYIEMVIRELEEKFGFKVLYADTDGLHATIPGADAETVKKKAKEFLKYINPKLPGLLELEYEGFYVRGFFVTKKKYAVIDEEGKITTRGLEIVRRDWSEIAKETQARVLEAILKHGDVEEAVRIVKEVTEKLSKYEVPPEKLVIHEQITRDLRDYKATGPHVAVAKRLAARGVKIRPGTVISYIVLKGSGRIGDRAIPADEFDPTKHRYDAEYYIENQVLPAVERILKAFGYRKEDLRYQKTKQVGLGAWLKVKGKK
Test: PEP
Format: biochemical, Thermococcus species 9ºN-7
attributeMeasured: pIC50
A value of pIC50 is the negative decimal logarithm of a concentration given in moles per litre.

The compound listed as Nc1ncnc2c1ncn2[C@H]1CC[C@@H](COP(=O)(O)OP(=O)(O)OP(=O)(O)O)O1 [ddATP, 2′,3′-dideoxyadenosine triphosphate, reference compound] has a reported pIC50 of 8.01

----------
Biological target: Therminator II DNA polymerase (Thermococcus sp., UniProt Q56366, A485L/D141A/E143A/Y409V)
Test: PEP termination assay
Format: biochemical, Thermococcus species 9ºN-7
attributeMeasured: IC50 (nM)
Kindly provide the numeric value in nM only, without the unit symbol.

The compound listed as "O=[N+]([O-])c1ccccc1CNc1ncnc2c1ncn2[C@H]1C[C@H](O)[C@@H](COP(=O)(O)OP(=O)(O)OP(=O)(O)O)O1" has a reported IC50 of 30

----------
Target: Klenow(exo−) DNA polymerase (Escherichia coli, UniProt P00582, D355A/E357A)
Test: PEP
Assay type: biochemical
attributeMeasured: IC50 (nM)
Kindly provide the numeric value in nM only, without the unit symbol.

The molecule listed as Nc1ncnc2c1ncn2[C@H]1CC[C@@H](COP(=O)(O)OP(=O)(O)OP(=O)(O)O)O1 [ddATP, 2′,3′-dideoxyadenosine triphosphate, reference compound] has a reported IC50 of 29

Provenance of the data: paper PMC2095803
